read-out: Interleukin-8 (IL8), CXCL8 (gene 3576); assay: BSK_3C_IL8: BioMAP Diversity Plus: 3C Assay for Interleukin-8 (IL8) Biomarker Activity (AID 2283020); details: primary human endothelial cells (HUVEC); actives raise or lower the signal
Activity calls are given as the source filed them. Rule for the calls: active = hit-call score of the fitted dose curve at least 0.9, where 1 is the maximum; inactive = score below 0.9.
Response enum: active, inactive

Below, 6 molecules whose answers are already recorded.
| molecule | label.class |
| --- | --- |
| OCCN1CCOCC1 | inactive |
| c1ccc2c(c1)-c1ccc3ccc4cccc5cc-2c1c3c45 | inactive |
| CC(C)Cc1ccc(C(C)C(=O)O)cc1 (configuration not stated) | active |
| CCCO[Si](OCCC)(OCCC)OCCC | inactive |
| NC(=O)c1c(Cl)cccc1Cl | inactive |
| Nc1ccc(N)c([N+](=O)[O-])c1 | inactive |

## Input Tell me the assay call for CC=CC(=O)C1=C(C)C=CCC1(C)C please.
## Output inactive
